Molecular target: T1, cMet-Fc fusion protein (extracellular domain of the cMet receptor expressed as an Fc-fusion protein) (human, UniProt P08581 25-932)
T1 construct: extracellular domain; also called soluble cMet-Fc-fusion protein; soluble cMet receptor; not shown: Fc part
T1 sequence (P08581 25-932): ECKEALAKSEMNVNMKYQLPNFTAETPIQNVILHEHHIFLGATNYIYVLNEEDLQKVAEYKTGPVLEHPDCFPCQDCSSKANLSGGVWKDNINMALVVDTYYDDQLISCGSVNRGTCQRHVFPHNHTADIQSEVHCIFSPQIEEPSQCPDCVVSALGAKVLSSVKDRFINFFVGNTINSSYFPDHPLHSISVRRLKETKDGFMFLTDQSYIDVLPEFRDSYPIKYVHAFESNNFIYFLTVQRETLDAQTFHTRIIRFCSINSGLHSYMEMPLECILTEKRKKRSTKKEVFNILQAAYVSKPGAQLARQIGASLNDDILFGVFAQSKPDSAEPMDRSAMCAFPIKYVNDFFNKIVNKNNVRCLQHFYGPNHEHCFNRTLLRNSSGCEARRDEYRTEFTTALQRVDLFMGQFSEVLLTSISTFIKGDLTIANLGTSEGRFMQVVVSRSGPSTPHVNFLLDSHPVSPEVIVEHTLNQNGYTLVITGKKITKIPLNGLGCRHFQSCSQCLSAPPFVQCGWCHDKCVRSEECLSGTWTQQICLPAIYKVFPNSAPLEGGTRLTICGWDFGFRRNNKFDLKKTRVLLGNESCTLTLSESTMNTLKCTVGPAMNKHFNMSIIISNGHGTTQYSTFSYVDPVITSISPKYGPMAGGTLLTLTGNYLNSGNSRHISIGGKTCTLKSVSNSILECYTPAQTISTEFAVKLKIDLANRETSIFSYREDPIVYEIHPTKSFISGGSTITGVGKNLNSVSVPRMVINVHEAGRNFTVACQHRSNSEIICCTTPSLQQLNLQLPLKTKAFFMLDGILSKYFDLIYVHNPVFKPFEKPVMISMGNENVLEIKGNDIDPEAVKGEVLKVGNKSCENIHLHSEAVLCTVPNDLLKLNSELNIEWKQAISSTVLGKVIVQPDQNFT
Assay: phage ELISA on cMet-Fc, competitor HGF 500 ng/mL
measurementKind: % of binding in the absence of HGF (%)
Numbers only, in %.

Recorded results for 2 binders are shown here.
>  <binder>
AQREVEEPYWYLDFLSSWRMHE [524-E09 peptide-displaying phage (SEQ ID NO: 451)]

>  <valueUnit>
%

>  <% of binding in the absence of HGF>
93

$$$$
>  <binder>
GSGMGCHQVNISTGDCAEDAP [442-E03 peptide-displaying phage (SEQ ID NO: 381)]

>  <valueUnit>
%

>  <% of binding in the absence of HGF>
81

$$$$

Report % of binding in the absence of HGF for each item below.
1. AQLFQYLWHDDPQGAFFQLSMW [98-F05 peptide-displaying phage (SEQ ID NO: 483)]
2. GSSTICPGTACVDHAP [574-H03 peptide-displaying phage (SEQ ID NO: 008)]
3. AGHAWCSGPPRFECWPPGT [329-D02 peptide-displaying phage (SEQ ID NO: 061)]
4. AQVPDWLSAVVIEKLIEYGMMV [93-C08 peptide-displaying phage (SEQ ID NO: 464)]
5. AGNYWCSGPPSFICHAVGT [549-D02 peptide-displaying phage (SEQ ID NO: 091)]

Ans.
57
18
31
96
36

Where do these numbers come from? They come from patent US20120039802A1.
